# CYP2C9 (Homo sapiens): IC50 values follow
# Sequence (P11712 whole entry): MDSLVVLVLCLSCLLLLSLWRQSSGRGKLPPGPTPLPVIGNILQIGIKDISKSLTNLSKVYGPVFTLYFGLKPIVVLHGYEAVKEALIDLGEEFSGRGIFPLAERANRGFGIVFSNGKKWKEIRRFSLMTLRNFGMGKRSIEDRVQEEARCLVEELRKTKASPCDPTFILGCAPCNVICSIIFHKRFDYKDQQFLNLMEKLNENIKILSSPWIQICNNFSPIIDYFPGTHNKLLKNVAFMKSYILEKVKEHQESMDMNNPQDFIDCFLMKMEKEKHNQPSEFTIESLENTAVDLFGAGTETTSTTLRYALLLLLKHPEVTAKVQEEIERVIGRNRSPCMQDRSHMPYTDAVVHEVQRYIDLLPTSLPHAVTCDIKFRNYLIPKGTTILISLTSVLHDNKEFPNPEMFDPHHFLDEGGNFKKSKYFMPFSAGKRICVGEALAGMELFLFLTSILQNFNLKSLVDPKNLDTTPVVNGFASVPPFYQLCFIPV
QUANTITY: IC50 (µM)

INSERT INTO measurements (compound, quantity, readout_relation, obs_value) VALUES
  ('Oc1ccc(C2CCC3(CC2)CC(O)C3)cc1 (racemic) [(±)-11, 7-(4-hydroxyphenyl)spiro[3.5]nonan-2-ol]', 'IC50', '>', 62.5),
  ('OCC12CC3CC(C1)C(c1ccc(O)cc1)C(C3)C2 (centres unmarked) [5a/b]', 'IC50', '=', 10);

###

TARGET_OR_TEST_SYSTEM: CYP2D6 (Homo sapiens, UniProt P10635)
Construct: purchased Promega (P450-Glo Screening Systems)
Sequence (P10635 whole entry): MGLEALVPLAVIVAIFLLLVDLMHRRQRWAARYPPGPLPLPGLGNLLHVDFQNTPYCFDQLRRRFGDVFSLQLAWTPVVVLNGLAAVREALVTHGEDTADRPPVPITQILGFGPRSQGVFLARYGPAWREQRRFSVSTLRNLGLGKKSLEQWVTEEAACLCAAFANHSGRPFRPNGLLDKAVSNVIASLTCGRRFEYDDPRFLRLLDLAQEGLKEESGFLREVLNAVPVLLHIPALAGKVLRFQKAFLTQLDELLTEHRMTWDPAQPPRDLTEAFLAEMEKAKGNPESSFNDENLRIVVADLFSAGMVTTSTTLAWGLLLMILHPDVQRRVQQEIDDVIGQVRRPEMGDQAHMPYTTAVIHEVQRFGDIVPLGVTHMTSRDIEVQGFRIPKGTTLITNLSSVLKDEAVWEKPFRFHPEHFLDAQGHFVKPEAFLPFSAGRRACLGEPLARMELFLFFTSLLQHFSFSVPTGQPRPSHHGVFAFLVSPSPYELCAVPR
ASSAY_PROCEDURE: Cytochrome P450 inhibition (P450-Glo), CYP2D6
Type: in vitro ADME
STATED_CONDITIONS: read-out: CYP2D6 inhibition: no inhibition up to
Procedure: A screen of Cytochrome p450 inhibition was performed using the Promega P450-Glo™ Screening Systems. […] After 20 minutes, the luciferase product was detected using a SpectraMax M5 Molecular Devices plate reader on the end-point luminescence setting. […] Inhibition data were analyzed using GraphPad Prism® 6 for Windows, ver. […] Standard deviations were calculated from Best-fit values. […]
QUANTITY: IC50

INSERT INTO results (molecule, quantity, obs_value) VALUES
  ('Oc1ccc(C2CCC3(CC2)CC(O)C3)cc1 (racemic) [(±)-11, 7-(4-hydroxyphenyl)spiro[3.5]nonan-2-ol]', 'IC50', '> 62.5 µM'),
  ('OCC12CC3CC(C1)C(c1ccc(O)cc1)C(C3)C2 (centres unmarked)', 'IC50', '> 62.5 µM');

###

TARGET_OR_TEST_SYSTEM: CYP3A4 (Homo sapiens)
Construct: purchased Promega (P450-Glo Screening Systems)
Sequence (P08684 whole entry): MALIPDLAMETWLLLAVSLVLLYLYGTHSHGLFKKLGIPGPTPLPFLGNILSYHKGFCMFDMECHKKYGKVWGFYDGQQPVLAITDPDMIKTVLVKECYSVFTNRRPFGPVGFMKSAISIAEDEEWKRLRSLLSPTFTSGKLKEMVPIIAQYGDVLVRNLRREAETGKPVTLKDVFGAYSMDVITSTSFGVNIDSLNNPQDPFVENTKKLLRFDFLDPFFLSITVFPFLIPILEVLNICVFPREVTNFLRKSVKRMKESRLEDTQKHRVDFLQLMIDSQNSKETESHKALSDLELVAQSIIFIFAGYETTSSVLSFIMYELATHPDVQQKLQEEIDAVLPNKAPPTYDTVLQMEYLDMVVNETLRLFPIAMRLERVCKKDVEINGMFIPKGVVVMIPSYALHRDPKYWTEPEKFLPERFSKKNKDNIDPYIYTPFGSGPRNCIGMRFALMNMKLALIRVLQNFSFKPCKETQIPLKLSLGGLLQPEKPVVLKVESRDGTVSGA
ASSAY_PROCEDURE: Cytochrome P450 inhibition (P450-Glo), CYP3A4
Format: in vitro ADME
STATED_CONDITIONS: read-out: CYP3A4 inhibition: no inhibition up to
Quick list: IC50 per entry.
QUANTITY: IC50

INSERT INTO measurements (compound, obs_value) VALUES
  ('Oc1ccc(C2CCC3(CC2)CC(O)C3)cc1 (racemic) [(±)-11, 7-(4-hydroxyphenyl)spiro[3.5]nonan-2-ol]', '> 62.5 µM'),
  ('OCC12CC3CC(C1)C(c1ccc(O)cc1)C(C3)C2 (centres unmarked)', '> 62.5 µM');

###

TARGET_OR_TEST_SYSTEM: ERβ (Homo sapiens, UniProt Q92731)
Sequence (Q92731 264-498 limits assumed): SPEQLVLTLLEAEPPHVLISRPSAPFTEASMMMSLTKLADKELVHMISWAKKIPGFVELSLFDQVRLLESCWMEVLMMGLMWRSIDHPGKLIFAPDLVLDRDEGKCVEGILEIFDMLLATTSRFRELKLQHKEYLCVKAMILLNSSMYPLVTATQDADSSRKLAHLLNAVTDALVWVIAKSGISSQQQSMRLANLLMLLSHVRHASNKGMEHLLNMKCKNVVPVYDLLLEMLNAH
ASSAY_PROCEDURE: TR-FRET ligand binding displacement assay (LanthaScreen)
QUANTITY: IC50 (µM)

INSERT INTO assay_data (compound, measure_unit, obs_value) VALUES
  ('O=C1CC2(CCC(c3ccc(O)cc3)CC2)C1 [compound 10, 7-(4-Hydroxyphenyl)spiro[3.5]nonan-2-one]', 'µM', 2.22);

Origin of measurements: patent US20240351965A1
